Assay Summary: Stability in mouse plasma assessed as parent compound remaining after 24 hrs
Type: ADME, cell-free
Measurement Parameters: read-out: Stability
Attribute: remaining at 24 h

{"columns": ["Entry Smiles", "remaining at 24 h (%)"],
 "data": [
  ["CC(=O)N[C@@H](Cc1ccccc1)C(=O)N[C@@H](CCC(N)=O)C(=O)N[C@@H](CO)C(=O)N[C@@H](CCCCN)C(=O)N1CCC[C@@H]1C(=O)N[C@@H](CC(N)=O)C(=O)N[C@H](C(=O)N[C@@H](Cc1c[nH]cn1)C(=O)N[C@H](C(=O)N[C@@H](CC(=O)O)C(=O)NCC(=O)N[C@@H](Cc1ccc(O)cc1)C(=O)N[C@@H](Cc1ccccc1)C(=O)N[C@@H](CCC(=O)O)C(=O)N[C@@H](CCCNC(=N)N)C(=O)N[C@@H](CC(C)C)C(=O)NC(C)(C)C(=O)N[C@@H](C)C(=O)N[C@@H](CCCCN)C(=O)N[C@@H](CC(C)C)C(N)=O)C1CCCCC1)C(C)C", 5.4],
  ["CC(=O)N[C@@H](Cc1ccccc1)C(=O)N[C@@H](CCC(N)=O)C(=O)N[C@@H](CO)C(=O)N[C@@H](CCCCN)C(=O)N1CCC[C@@H]1C(=O)N[C@@H](CC(N)=O)C(=O)N[C@H](C(=O)N[C@@H](Cc1cnc[nH]1)C(=O)N[C@H](C(=O)N[C@@H](CC(=O)O)C(=O)N[C@H](C)C(=O)N[C@@H](Cc1ccc(O)cc1)C(=O)N[C@@H](Cc1ccccc1)C(=O)N[C@@H](CCC(=O)O)C(=O)N[C@@H](CCCNC(=N)N)C(=O)N[C@H]1CCSSCC[C@@H](C(N)=O)NC(=O)[C@H](CCCCN)NC(=O)[C@H](C)NC(=O)C(C)(C)NC1=O)C(C)(C)C)C(C)C", 65.5]
]}

* * *

Assay Summary: Stability in human plasma assessed as parent compound remaining after 24 hrs
Type: ADME, cell-free
Measurement Parameters: read-out: Stability

{"columns": ["Entry Smiles", "remaining at 24 h, %"],
 "data": [
  ["CC(=O)N[C@@H](Cc1ccccc1)C(=O)N[C@@H](CCC(N)=O)C(=O)N[C@@H](CO)C(=O)N[C@@H](CCCCN)C(=O)N(CCCN)CC(=O)N[C@@H](CC(N)=O)C(=O)N[C@H](C(=O)N[C@@H](Cc1cnc[nH]1)C(=O)N[C@H](C(=O)N[C@@H](CC(=O)O)C(=O)NCC(=O)N[C@@H](Cc1ccc(O)cc1)C(=O)N[C@@H](Cc1ccccc1)C(=O)N[C@@H](CCC(=O)O)C(=O)N[C@@H](CCCNC(=N)N)C(=O)N[C@@H](CC(C)C)C(=O)NC(C)(C)C(=O)N[C@@H](C)C(=O)N[C@@H](CCCCN)C(=O)N[C@@H](CC(C)C)C(N)=O)C(C)C)C(C)C", 46.7],
  ["CC(=O)N[C@@H](Cc1ccccc1)C(=O)N[C@@H](CCC(N)=O)C(=O)N[C@@H](CO)C(=O)N[C@@H](CCCCN)C(=O)N1CCC[C@@H]1C(=O)N[C@@H](CC(N)=O)C(=O)N[C@H](C(=O)N[C@@H](Cc1cnc[nH]1)C(=O)N[C@H](C(=O)N1CCC[C@H]1C(=O)NCC(=O)N[C@@H](Cc1ccc(O)cc1)C(=O)N[C@@H](Cc1ccccc1)C(=O)N[C@@H](CCC(=O)O)C(=O)N[C@@H](CCCNC(=N)N)C(=O)N[C@@H](CC(C)C)C(=O)NC(C)(C)C(=O)N[C@@H](C)C(=O)N[C@@H](CCCCN)C(=O)N[C@@H](CC(C)C)C(N)=O)C(C)C)C(C)C", 76.3]
]}
